Kindly state Minimum inhibitory concentration for each of the entries shown.
Tested on: Pseudomonas aeruginosa FADDI-PA01
Format: cell-based
Settings: FADDI-
Where a SMILES comes first, the peptide text is derived from it. Bridges are numbered along the chain shown (N, C = ends). [ ]: non-standard residue; d: D form. The star is where a group is joined. X28 = Cc1cc(C(=O)*)cc(Cl)n1; X67 = O=C(c1cc(Br)sc1Br)*; Dab = NCC[C@H](N)C(=O)O; X40 = Cc1cncc(C(=O)*)c1; Abu = CC[C@H](N)C(=O)O; Dap = NC[C@H](N)C(=O)O
Give your result in mg/L as a bare value.

[ask] # query: Minimum inhibitory concentration | item CC[C@@H]1NC(=O)[C@@H](CC(C)C)NC(=O)[C@H](CCN)NC(=O)[C@@H](NC(=O)[C@H](CN)NC(=O)[C@@H](NC(=O)[C@H](CCN)NC(=O)c2cc(Br)sc2Br)[C@@H](C)O)CCNC(=O)[C@H]([C@@H](C)O)NC(=O)[C@H](CCN)NC(=O)[C@H](CCN)NC1=O [Compound 76] (X67-[Dab]T[Dap][Dab][Dab][dL][Abu][Dab][Dab]T; lactam 4-C) | system: Pseudomonas aeruginosa FADDI-PA01
[reply] 0.25

[ask] # query: Minimum inhibitory concentration | item CC[C@@H]1NC(=O)[C@@H](CC(C)C)NC(=O)[C@H](CCN)NC(=O)[C@@H](NC(=O)[C@H](CN)NC(=O)[C@@H](NC(=O)[C@H](CCN)NC(=O)c2cc(C)nc(Cl)c2)[C@@H](C)O)CCNC(=O)[C@H]([C@@H](C)O)NC(=O)[C@H](CCN)NC(=O)[C@H](CCN)NC1=O [Compound 39] (X28-[Dab]T[Dap][Dab][Dab][dL][Abu][Dab][Dab]T; lactam 4-C) | system: Pseudomonas aeruginosa FADDI-PA01
[reply] 0.5

[ask] # query: Minimum inhibitory concentration | item CC[C@@H]1NC(=O)[C@@H](CC(C)C)NC(=O)[C@H](CCN)NC(=O)[C@@H](NC(=O)[C@H](CN)NC(=O)[C@@H](NC(=O)[C@H](CCN)NC(=O)c2cncc(C)c2)[C@@H](C)O)CCNC(=O)[C@H]([C@@H](C)O)NC(=O)[C@H](CCN)NC(=O)[C@H](CCN)NC1=O [Compound 30] (X40-[Dab]T[Dap][Dab][Dab][dL][Abu][Dab][Dab]T; lactam 4-C) | system: Pseudomonas aeruginosa FADDI-PA01
[reply] 0.5

* * *

Tested on: Acinetobacter baumannii FADDI-AB030
Experiment: microbe, parasite or virus in culture
Type: cell-based
Conditions: FADDI-AB030
Where a SMILES comes first, the peptide text is derived from it. Bridges are numbered along the chain shown (N, C = ends). [ ]: non-standard residue; d: D form. The star is where a group is joined. Benzothiazole(2-CH2CH2CO) = O=C(CCc1nc2ccccc2s1)*; X45 = O=C(c1cc(C(F)(F)F)ccn1)*; X20 = O=C(c1ccc(C(F)(F)F)s1)*; X4 = O=C(c1cncc(C(F)(F)F)c1)*; X58 = Cn1cc(CC(=O)*)c2ccccc21; X69 = Cn1c(C(=O)*)nc2ccccc21; X38 = O=C(c1cc2sccc2[nH]1)*; X1 = O=C(c1ncc(Cl)cc1Cl)*; Dab = NCC[C@H](N)C(=O)O; X40 = Cc1cncc(C(=O)*)c1; Abu = CC[C@H](N)C(=O)O; Dap = NC[C@H](N)C(=O)O; X53 = O=C(c1ccncc1Cl)*; X71 = O=C(c1sccc1Cl)*
Kindly state Minimum inhibitory concentration for each of the entries shown.
Give your result in mg/L as a bare value.

[ask] May I ask what Minimum inhibitory concentration has been recorded for CC[C@@H]1NC(=O)[C@@H](CC(C)C)NC(=O)[C@H](CCN)NC(=O)[C@@H](NC(=O)[C@H](CN)NC(=O)[C@@H](NC(=O)[C@H](CCN)NC(=O)c2nc3ccccc3n2C)[C@@H](C)O)CCNC(=O)[C@H]([C@@H](C)O)NC(=O)[C@H](CCN)NC(=O)[C@H](CCN)NC1=O [Compound 57] (X69-[Dab]T[Dap][Dab][Dab][dL][Abu][Dab][Dab]T; lactam 4-C) ?
[reply] 0.25

[ask] May I ask what Minimum inhibitory concentration has been recorded for CC[C@@H]1NC(=O)[C@@H](CC(C)C)NC(=O)[C@H](CCN)NC(=O)[C@@H](NC(=O)[C@H](CN)NC(=O)[C@@H](NC(=O)[C@H](CCN)NC(=O)c2ccc(C(F)(F)F)s2)[C@@H](C)O)CCNC(=O)[C@H]([C@@H](C)O)NC(=O)[C@H](CCN)NC(=O)[C@H](CCN)NC1=O [Compound 86] (X20-[Dab]T[Dap][Dab][Dab][dL][Abu][Dab][Dab]T; lactam 4-C) ?
[reply] 0.25

[ask] May I ask what Minimum inhibitory concentration has been recorded for CC[C@@H]1NC(=O)[C@@H](CC(C)C)NC(=O)[C@H](CCN)NC(=O)[C@@H](NC(=O)[C@H](CN)NC(=O)[C@@H](NC(=O)[C@H](CCN)NC(=O)c2sccc2Cl)[C@@H](C)O)CCNC(=O)[C@H]([C@@H](C)O)NC(=O)[C@H](CCN)NC(=O)[C@H](CCN)NC1=O [Compound 89] (X71-[Dab]T[Dap][Dab][Dab][dL][Abu][Dab][Dab]T; lactam 4-C) ?
[reply] 2

[ask] May I ask what Minimum inhibitory concentration has been recorded for CC[C@@H]1NC(=O)[C@@H](CC(C)C)NC(=O)[C@H](CCN)NC(=O)[C@@H](NC(=O)[C@H](CN)NC(=O)[C@@H](NC(=O)[C@H](CCN)NC(=O)c2cncc(C(F)(F)F)c2)[C@@H](C)O)CCNC(=O)[C@H]([C@@H](C)O)NC(=O)[C@H](CCN)NC(=O)[C@H](CCN)NC1=O [Compound 20] (X4-[Dab]T[Dap][Dab][Dab][dL][Abu][Dab][Dab]T; lactam 4-C) ?
[reply] 0.5

[ask] May I ask what Minimum inhibitory concentration has been recorded for CC[C@@H]1NC(=O)[C@@H](CC(C)C)NC(=O)[C@H](CCN)NC(=O)[C@@H](NC(=O)[C@H](CN)NC(=O)[C@@H](NC(=O)[C@H](CCN)NC(=O)c2cc3sccc3[nH]2)[C@@H](C)O)CCNC(=O)[C@H]([C@@H](C)O)NC(=O)[C@H](CCN)NC(=O)[C@H](CCN)NC1=O [Compound 90] (X38-[Dab]T[Dap][Dab][Dab][dL][Abu][Dab][Dab]T; lactam 4-C) ?
[reply] 0.5

[ask] May I ask what Minimum inhibitory concentration has been recorded for CC[C@@H]1NC(=O)[C@@H](CC(C)C)NC(=O)[C@H](CCN)NC(=O)[C@@H](NC(=O)[C@H](CN)NC(=O)[C@@H](NC(=O)[C@H](CCN)NC(=O)CCc2nc3ccccc3s2)[C@@H](C)O)CCNC(=O)[C@H]([C@@H](C)O)NC(=O)[C@H](CCN)NC(=O)[C@H](CCN)NC1=O [Compound 72] ({Benzothiazole(2-CH2CH2CO)}-[Dab]T[Dap][Dab][Dab][dL][Abu][Dab][Dab]T; lactam 4-C) ?
[reply] 0.5

[ask] May I ask what Minimum inhibitory concentration has been recorded for CC[C@@H]1NC(=O)[C@@H](CC(C)C)NC(=O)[C@H](CCN)NC(=O)[C@@H](NC(=O)[C@H](CN)NC(=O)[C@@H](NC(=O)[C@H](CCN)NC(=O)c2cncc(C)c2)[C@@H](C)O)CCNC(=O)[C@H]([C@@H](C)O)NC(=O)[C@H](CCN)NC(=O)[C@H](CCN)NC1=O [Compound 30] (X40-[Dab]T[Dap][Dab][Dab][dL][Abu][Dab][Dab]T; lactam 4-C) ?
[reply] 4

[ask] May I ask what Minimum inhibitory concentration has been recorded for CC(C)C[C@H]1NC(=O)[C@H](CCN)NC(=O)[C@@H](NC(=O)[C@H](CN)NC(=O)[C@@H](NC(=O)[C@H](CCN)NC(=O)c2ncc(Cl)cc2Cl)[C@@H](C)O)CCNC(=O)[C@H]([C@@H](C)O)NC(=O)[C@H](CCN)NC(=O)[C@H](CCN)NC(=O)[C@H](C)NC1=O [Compound 10] (X1-[Dab]T[Dap][Dab][Dab][dL]A[Dab][Dab]T; lactam 4-C) ?
[reply] 8

[ask] May I ask what Minimum inhibitory concentration has been recorded for CC[C@@H]1NC(=O)[C@@H](CC(C)C)NC(=O)[C@H](CCN)NC(=O)[C@@H](NC(=O)[C@H](CN)NC(=O)[C@@H](NC(=O)[C@H](CCN)NC(=O)Cc2cn(C)c3ccccc23)[C@@H](C)O)CCNC(=O)[C@H]([C@@H](C)O)NC(=O)[C@H](CCN)NC(=O)[C@H](CCN)NC1=O [Compound 62] (X58-[Dab]T[Dap][Dab][Dab][dL][Abu][Dab][Dab]T; lactam 4-C) ?
[reply] 0.5

[ask] May I ask what Minimum inhibitory concentration has been recorded for CC[C@@H]1NC(=O)[C@@H](CC(C)C)NC(=O)[C@H](CCN)NC(=O)[C@@H](NC(=O)[C@H](CN)NC(=O)[C@@H](NC(=O)[C@H](CCN)NC(=O)c2cc(C(F)(F)F)ccn2)[C@@H](C)O)CCNC(=O)[C@H]([C@@H](C)O)NC(=O)[C@H](CCN)NC(=O)[C@H](CCN)NC1=O [Compound 21] (X45-[Dab]T[Dap][Dab][Dab][dL][Abu][Dab][Dab]T; lactam 4-C) ?
[reply] 0.25

[ask] May I ask what Minimum inhibitory concentration has been recorded for CC[C@@H]1NC(=O)[C@@H](CC(C)C)NC(=O)[C@H](CCN)NC(=O)[C@@H](NC(=O)[C@H](CN)NC(=O)[C@@H](NC(=O)[C@H](CCN)NC(=O)c2ccncc2Cl)[C@@H](C)O)CCNC(=O)[C@H]([C@@H](C)O)NC(=O)[C@H](CCN)NC(=O)[C@H](CCN)NC1=O [Compound 34] (X53-[Dab]T[Dap][Dab][Dab][dL][Abu][Dab][Dab]T; lactam 4-C) ?
[reply] 8

From: patent US11225505B2
